Each recorded value in this set is attributed to the RNAGym collection of RNA variant scans (doi:10.7554/elife.80360).

Task for the reader: assign each of the following variants its reported self-cleavage.
B1: Hairpin Ribozyme (parent)
chain: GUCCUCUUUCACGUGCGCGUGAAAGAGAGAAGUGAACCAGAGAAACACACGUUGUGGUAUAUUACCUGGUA

variants of: B1; test: self-cleavage, relative activity (ratio to wild type); higher = more cleavage; co-transcriptional
// response body must contain only the number

Sure, the documented self-cleavage for GUCCUCUCUCUCGUGCGCGUGAAAGAGAGAAGUGAACCAGAGAAACACACGUUGUGGUAUAUUACCUGGUA [U8C A11U] is 0.252

// self-cleavage lookup, variant = GUCCUCUUUUACGAGCGCGUGAAAGAGAGAAGUGAACCAGAGAAACACACGUUGUGGUAUAUUACCUGGUA [C10U U14A] , result: 0.811

Lab note: GUCCUCUUUCACGUGCGCGUGAAAGAGAGAAGUGACCCAGAGAAACAGACGUUGUGGUAUAUUACCUGGUA [A36C C48G] gave self-cleavage of 0.118

Entry GUCCUCUUUCACGUGCGCGUGAAAGAGAGAAGUGAGCCAGAGAAACACACGUUGUGGUGUAUUACCUGGUA [A36G A59G] — recorded self-cleavage = 0.146

GACCUCUUUCACGUGCGCGUGAAAGAGAGAAGUGAACCAGAGAAACACACGUUGUGGUGUAUUACCUGGUA [U2A A59G] has a reported self-cleavage of 0.156

Reported self-cleavage ( GUCCUCUUUCACGUGCGCGUGAAAGAGAGAAGUGAACCGGAGACACACACGUUGUGGUAUAUUACCUGGUA [A39G A44C] ) = 0.0747

Please fill in: self-cleavage reported for GUCCUCUUUCACGUGCGCGUGAAAGAGAGAAGUAAAGCAGAGAAACACACGUUGUGGUAUAUUACCUGGUA [G34A C37G] = 0.519

GET /value?item= GUCCUCUUUCACGUGCGCAUGAAAGAGAGAAAUGAACCAGAGAAACACACGUUGUGGUAUAUUACCUGGUA [G19A G32A] &field=self-cleavage returns 0.131

Record GUCCUCUUUCACGUGCGCGUGAAAGAGAGAAGUGAACCAGAGCAACACACGUUGUGGUAUAUUACCUGGUA [A43C] . Reported self-cleavage: 0.141
